From: patent US5747336A

# targetUnderTest: human m2 receptor (Hm2) (Homo sapiens, UniProt P08172)
# Sequence (P08172 1-466): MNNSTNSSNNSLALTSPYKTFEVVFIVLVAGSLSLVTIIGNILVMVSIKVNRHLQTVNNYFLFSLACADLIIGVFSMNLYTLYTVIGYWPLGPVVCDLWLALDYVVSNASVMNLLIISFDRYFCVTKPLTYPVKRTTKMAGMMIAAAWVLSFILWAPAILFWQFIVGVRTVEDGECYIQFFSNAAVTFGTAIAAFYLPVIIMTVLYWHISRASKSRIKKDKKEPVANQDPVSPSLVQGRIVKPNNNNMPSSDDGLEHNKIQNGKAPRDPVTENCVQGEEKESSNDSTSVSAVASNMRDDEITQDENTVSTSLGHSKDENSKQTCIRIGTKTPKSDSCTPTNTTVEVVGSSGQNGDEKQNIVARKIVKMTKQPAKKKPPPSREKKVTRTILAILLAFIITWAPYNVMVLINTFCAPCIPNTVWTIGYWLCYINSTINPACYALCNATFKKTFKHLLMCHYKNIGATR
assayReadout: IC50 (µM)

> print(dat)
                                   molecule  scaleunit  measurednumber
1  CCN(CC)CC1CCCCN1CC(=O)N1c2ccccc2C(=O)Nc2cccnc21 (stereo not shown)         µM            0.36
